- targetEntity: CDK7/H (Homo sapiens, UniProt P50613)
- Sequence (P50613 whole entry): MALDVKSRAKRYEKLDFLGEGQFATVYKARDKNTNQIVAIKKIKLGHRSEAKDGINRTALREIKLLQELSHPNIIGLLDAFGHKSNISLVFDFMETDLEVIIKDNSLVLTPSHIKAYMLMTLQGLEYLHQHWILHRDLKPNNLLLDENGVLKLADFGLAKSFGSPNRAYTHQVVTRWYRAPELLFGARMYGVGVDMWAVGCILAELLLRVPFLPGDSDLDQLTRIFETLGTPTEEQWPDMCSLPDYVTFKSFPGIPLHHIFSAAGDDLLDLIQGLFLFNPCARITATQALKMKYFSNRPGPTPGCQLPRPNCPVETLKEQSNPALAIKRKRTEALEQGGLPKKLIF
- Sequence (P51946 whole entry partner): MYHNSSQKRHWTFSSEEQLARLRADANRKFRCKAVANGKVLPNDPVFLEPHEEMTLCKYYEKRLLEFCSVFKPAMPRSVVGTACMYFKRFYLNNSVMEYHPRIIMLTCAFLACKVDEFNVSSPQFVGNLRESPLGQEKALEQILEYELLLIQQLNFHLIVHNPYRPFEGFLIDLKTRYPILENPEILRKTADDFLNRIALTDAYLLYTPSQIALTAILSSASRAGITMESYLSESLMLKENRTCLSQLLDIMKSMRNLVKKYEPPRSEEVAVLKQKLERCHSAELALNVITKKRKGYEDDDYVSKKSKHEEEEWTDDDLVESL
- Sequence (P51948 whole entry partner): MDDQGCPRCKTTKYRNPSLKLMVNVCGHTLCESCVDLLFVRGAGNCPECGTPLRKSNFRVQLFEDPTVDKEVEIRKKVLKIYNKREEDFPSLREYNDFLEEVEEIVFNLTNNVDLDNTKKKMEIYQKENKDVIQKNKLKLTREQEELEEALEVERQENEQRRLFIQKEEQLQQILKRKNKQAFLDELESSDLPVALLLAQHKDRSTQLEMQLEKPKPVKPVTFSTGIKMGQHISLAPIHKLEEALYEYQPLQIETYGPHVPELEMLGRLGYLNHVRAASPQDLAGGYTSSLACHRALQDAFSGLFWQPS
- conditionDescription: read-out: CDK7 Inhibitory Activity IC50; Table 3
readout: pIC50
Notebook: values listed as pIC50 are -log10 of the concentration (mol/L).

Identify the reported pIC50 for the following entry. NS(=O)(=O)c1ccc(Nc2nc(OCC3CCCCC3)c3cc[nH]c3n2)cc1 [Compound 98] 5.39

Provide only the value of recorded pIC50 for NS(=O)(=O)c1ccc(Nc2nc(OCC3CCCCC3)c3nn[nH]c3n2)cc1 [Compound 90] 5.17

Identify measured pIC50 associated with NS(=O)(=O)c1ccc(Nc2nc(OCC3CCCCC3)c3cn[nH]c3n2)cc1 [Compound 91] 5.15

----------
Please provide measured IC50 for the entries that follow.
- targetEntity: CDK7/H (Homo sapiens)
- conditionDescription: read-out: CDK7/H IC50; Table 2; ATP 100 μM
Please state the figure in µM; there is no need to write the unit.

Report measured IC50; entry is CCC(C)Oc1nc(Nc2ccc(S(N)(=O)=O)cc2)nc2[nH]cnc12 (racemic) 2.8

Read off the recorded IC50 for "NS(=O)(=O)c1ccc(Nc2nc(-c3ccccc3)c3nc[nH]c3n2)cc1" 6.8

Indicate the recorded IC50 value for this compound: NS(=O)(=O)c1ccc(Nc2ncc3nc[nH]c3n2)cc1 [Compound 13, 4-(9H-Purin-2-ylamino)benzenesulfonamide] 75

----------
- targetEntity: CDK9/T (Homo sapiens, UniProt P50750)
- Sequence (P50750 whole entry): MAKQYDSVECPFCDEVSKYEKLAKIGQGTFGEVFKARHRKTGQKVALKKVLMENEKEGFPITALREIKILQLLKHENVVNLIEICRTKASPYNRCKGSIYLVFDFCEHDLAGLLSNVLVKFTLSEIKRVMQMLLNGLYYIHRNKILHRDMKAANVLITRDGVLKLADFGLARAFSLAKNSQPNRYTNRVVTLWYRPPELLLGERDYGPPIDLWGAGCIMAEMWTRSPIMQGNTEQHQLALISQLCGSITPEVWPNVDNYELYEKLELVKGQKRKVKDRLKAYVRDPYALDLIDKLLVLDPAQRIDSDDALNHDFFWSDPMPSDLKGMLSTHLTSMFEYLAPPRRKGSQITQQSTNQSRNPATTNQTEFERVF
- Sequence (O60563 whole entry partner): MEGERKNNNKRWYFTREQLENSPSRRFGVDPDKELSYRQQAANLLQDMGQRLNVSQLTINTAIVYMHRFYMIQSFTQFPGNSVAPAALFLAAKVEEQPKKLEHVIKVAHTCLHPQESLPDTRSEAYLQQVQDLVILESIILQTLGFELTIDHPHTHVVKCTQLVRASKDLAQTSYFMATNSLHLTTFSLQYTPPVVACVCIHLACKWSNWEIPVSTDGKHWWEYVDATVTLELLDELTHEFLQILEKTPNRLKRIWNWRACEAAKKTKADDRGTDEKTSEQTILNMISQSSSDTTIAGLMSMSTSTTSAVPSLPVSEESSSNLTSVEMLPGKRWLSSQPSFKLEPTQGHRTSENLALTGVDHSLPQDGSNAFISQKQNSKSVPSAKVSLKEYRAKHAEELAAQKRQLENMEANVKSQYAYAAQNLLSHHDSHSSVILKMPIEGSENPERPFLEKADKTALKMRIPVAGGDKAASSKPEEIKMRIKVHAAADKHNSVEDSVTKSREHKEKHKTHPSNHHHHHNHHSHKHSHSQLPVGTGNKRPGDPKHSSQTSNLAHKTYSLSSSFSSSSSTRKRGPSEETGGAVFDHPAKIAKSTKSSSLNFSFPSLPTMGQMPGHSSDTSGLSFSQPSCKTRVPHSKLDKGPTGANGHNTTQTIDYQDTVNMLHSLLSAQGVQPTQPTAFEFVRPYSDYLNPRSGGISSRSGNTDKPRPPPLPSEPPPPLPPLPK
- conditionDescription: read-out: CDK9 Inhibitory Activity IC50; Table 3
Can you tell me IC50 for the items I'm about to list?
Please respond with the number in nM and leave the unit unwritten.

Using known records, supply IC50 for "NS(=O)(=O)c1ccc(Nc2nc(OCC3CCCCC3)c3cc[nH]c3n2)cc1" 1000

Please indicate IC50 recorded for "NS(=O)(=O)c1ccc(Nc2nc(OCC3CCCCC3)c3nn[nH]c3n2)cc1" 750

Read the entry "NS(=O)(=O)c1ccc(Nc2nc(OCC3CCCCC3)c3cn[nH]c3n2)cc1" and write its reported IC50. 4600

----------
- targetEntity: CDK2/A (Homo sapiens, UniProt P24941)
- conditionDescription: read-out: CDK2 Inhibitory Activity IC50; Table 3
Consider the following molecules; for each one, report its log10(IC50).
Record value = log10 of IC50 given in µM.

Kindly indicate its recorded log10(IC50). Item: NS(=O)(=O)c1ccc(Nc2nc(OCC3CCCCC3)c3nn[nH]c3n2)cc1 [Compound 90] -2.70

In one line, give reported log10(IC50) of the entry Nc1nc(OCC2CCCCC2)c2nn[nH]c2n1 [Compound 86] . 1.26

Give the reported value of log10(IC50) for this record: NS(=O)(=O)c1ccc(Nc2cc(OCC3CCCCC3)c3nc[nH]c3n2)cc1 [Compound 83] -0.54

Read the entry Nc1nc(OCC2CCCCC2)c2cn[nH]c2n1 [Compound 87] and write its reported log10(IC50). 1.20

Quick one: give measured log10(IC50) for Nc1cc(OCC2CCCCC2)c2nc[nH]c2n1 [Compound 80] 1.45

Check the records and state log10(IC50) for NS(=O)(=O)c1ccc(Nc2nc(OCC3CCCCC3)c3cc[nH]c3n2)cc1 [Compound 98] -1.59

----------
- targetEntity: Human CDK1/B (Homo sapiens, UniProt P06493)
- Sequence (P06493 whole entry): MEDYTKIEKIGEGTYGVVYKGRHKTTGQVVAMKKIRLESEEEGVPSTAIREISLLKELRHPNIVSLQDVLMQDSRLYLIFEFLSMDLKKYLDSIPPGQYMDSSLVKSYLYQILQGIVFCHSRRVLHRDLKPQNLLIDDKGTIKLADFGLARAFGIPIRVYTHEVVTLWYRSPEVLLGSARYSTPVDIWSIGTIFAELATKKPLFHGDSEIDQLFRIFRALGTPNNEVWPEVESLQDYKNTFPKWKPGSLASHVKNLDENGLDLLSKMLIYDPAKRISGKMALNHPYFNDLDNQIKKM
- Sequence (P14635 whole entry partner): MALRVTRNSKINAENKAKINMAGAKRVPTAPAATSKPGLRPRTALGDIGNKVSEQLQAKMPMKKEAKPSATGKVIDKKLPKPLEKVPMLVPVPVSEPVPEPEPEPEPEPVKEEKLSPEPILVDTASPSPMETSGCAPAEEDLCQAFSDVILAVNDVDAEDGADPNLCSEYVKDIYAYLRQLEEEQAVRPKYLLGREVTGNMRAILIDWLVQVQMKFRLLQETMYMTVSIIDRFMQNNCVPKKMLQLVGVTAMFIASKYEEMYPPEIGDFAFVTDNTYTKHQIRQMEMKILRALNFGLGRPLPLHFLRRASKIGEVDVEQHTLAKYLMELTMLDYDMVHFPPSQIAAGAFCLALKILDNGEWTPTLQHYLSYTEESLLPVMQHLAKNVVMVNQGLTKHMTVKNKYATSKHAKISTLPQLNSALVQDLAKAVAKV
- conditionDescription: read-out: CDK1 Inhibitory Activity IC50; Table 3
Give pIC50 for every item shown.
Notebook: values listed as pIC50 are -log10 of the concentration (mol/L).

Supply measured pIC50 of NS(=O)(=O)c1ccc(Nc2cc(OCC3CCCCC3)c3nc[nH]c3n2)cc1 [Compound 83] in your reply. 4.96

Recall and state the measured pIC50 for NS(=O)(=O)c1ccc(Nc2nc(OCC3CCCCC3)c3cc[nH]c3n2)cc1 [Compound 98] . 5.57

Look up and state reported pIC50 for NS(=O)(=O)c1ccc(Nc2nc(OCC3CCCCC3)c3nn[nH]c3n2)cc1 [Compound 90] 6.12
